- procedure summary: protein stability index of a GFP-peptide fusion (yeast GPS) (PSI 1-4); higher = more stable; sorted into four equal gates, so the index is relative within each strain
- condition details: pdr5∆
Assign 1 to entries whose protein stability index meets or exceeds 3; assign -1 to the rest.

API: above_or_equal(metric=protein stability index, cutoff=3) for item PNSERETDHANTENNDP [IRR1]
-1

API: above_or_equal(metric=protein stability index, cutoff=3) for item SYKMNSSAADITMESVH [PRP8]
1

API: above_or_equal(metric=protein stability index, cutoff=3) for item RRVYNRVLETTLVEFET [BRN1]
-1

API: above_or_equal(metric=protein stability index, cutoff=3) for item NNSNTVASSTNFTSPTA [SWI1]
-1

API: above_or_equal(metric=protein stability index, cutoff=3) for item LLMRLEGNYRNLNNLKQ [RPB8]
1

API: above_or_equal(metric=protein stability index, cutoff=3) for item FCPIVEEIVSNSSRFSD [YCS4]
-1

API: above_or_equal(metric=protein stability index, cutoff=3) for item HSLSQAIKWDGSSGGVI [PRE3]
1

API: above_or_equal(metric=protein stability index, cutoff=3) for item QKLLKQLDSDANKLSKS [ISW2]
-1

API: above_or_equal(metric=protein stability index, cutoff=3) for item LISIISSVIQNYDIITA [YML103C/NUP188]
-1

API: above_or_equal(metric=protein stability index, cutoff=3) for item VLVASAKGLQTVVVEED [RPL31A]
-1

API: above_or_equal(metric=protein stability index, cutoff=3) for item MSLVVQEQGSFQHILRL [RPS18A]
-1

API: above_or_equal(metric=protein stability index, cutoff=3) for item TTVIGIRGSDQAIPKFQ [RPN2]
-1

API: above_or_equal(metric=protein stability index, cutoff=3) for item SAGAVFKSSVEMGKTDK [YOR098C/NUP1]
1

----------
- procedure summary: protein stability index of a GFP-peptide fusion (yeast GPS) (PSI 1-4); higher = more stable; sorted into four equal gates, so the index is relative within each strain
- condition details: doa10∆
measured property: protein stability index

The reported protein stability index of the sequence QLDGFSSDDRVKVLAAT [RPT5] was 2.88

The reported protein stability index of the sequence DTFVHVTDLSGKETIAR [RPS14B] was 2.88

The reported protein stability index of the sequence EQSVKTQNSRHYMVHEA [LIN1] was 2.62

The reported protein stability index of the sequence LLDRILPKLKATGHRVL [SNF2] was 2.57

The reported protein stability index of the sequence SRGFEVMYNGHTGKKLM [RPB2] was 1.97

The reported protein stability index of the sequence IAAKLINSGLYSVLLES [YML103C/NUP188] was 2.54

The reported protein stability index of the sequence LEGEEIKSEEKKGKSSD [RPN1] was 2.19

The reported protein stability index of the sequence SNIQRNVLFLRLFNNVK [SRP72] was 2.24

----------
- procedure summary: protein stability index of a GFP-peptide fusion (yeast GPS) (PSI 1-4); higher = more stable; sorted into four equal gates, so the index is relative within each strain
- condition details: san1∆
measured property: protein stability index
Provide a numeric answer; units are not to be included.

The reported protein stability index of the sequence TPSFSFGKTTANLPANS [YLR335W/NUP2] was 3.01

The reported protein stability index of the sequence NLKLISVSLVDEFPSEL [SIR4] was 2.5

The reported protein stability index of the sequence GALDVEGLCIVAGSKCW [RRP45] was 2.87

The reported protein stability index of the sequence SPRFNVKIGDIEKWTAN [RPS22A] was 2.85

The reported protein stability index of the sequence RERDITSLFHKFILSGF [RRI2] was 2.23

The reported protein stability index of the sequence VKCEELSNTLACYRTIM [RRP40] was 2.01

The reported protein stability index of the sequence SARNYDKFKLNENDLKT [SMC1] was 2.35

----------
Please provide measured protein stability index for the entries that follow.
- procedure summary: protein stability index of a GFP-peptide fusion (yeast GPS) (PSI 1-4); higher = more stable; sorted into four equal gates, so the index is relative within each strain
- condition details: san1∆
Provide a numeric answer; units are not to be included.

The reported protein stability index of the sequence QLESIYFRILLPYERHM [SWI1] was 1.68

The reported protein stability index of the sequence RDREPKEPVALIETVRQ [RPN2] was 3.12

The reported protein stability index of the sequence QGRRNSRNFSTRDEETT [SIR4] was 3.12

The reported protein stability index of the sequence PDDMVEINSVGNPGLPQ [ITC1] was 3.05

The reported protein stability index of the sequence NIDETSDEVSRGIPRLS [SMC4] was 2.97

The reported protein stability index of the sequence GCSKICDLSSKFNKSKA [YCS4] was 3.16

The reported protein stability index of the sequence NKLGNDPSLNLKLLAKS [BRR2] was 2.86

The reported protein stability index of the sequence KYKSNTNNMEKIIEDLR [SMC2] was 3.23

----------
- procedure summary: protein stability index of a GFP-peptide fusion (yeast GPS) (PSI 1-4); higher = more stable; sorted into four equal gates, so the index is relative within each strain
- condition details: ubr1∆
measured property: protein stability index
Provide a numeric answer; units are not to be included.

The reported protein stability index of the sequence LDALVDCENFFNYVQEC [YJL039C/NUP192] was 3.41

The reported protein stability index of the sequence LIQLQNIFKAEMDSVSK [CSN9] was 2.81

The reported protein stability index of the sequence PLVLLQQIPLLCYMAPM [POP3] was 1.92

The reported protein stability index of the sequence CVDDNSKISFIDEDKLY [SSN2] was 2.82

The reported protein stability index of the sequence IESNKLAGVLYESRNVA [RRP6] was 3.08

The reported protein stability index of the sequence VPRTADRSASRAVFLFR [RPC82] was 3.04

The reported protein stability index of the sequence IHLLHDDRGPVLESIVA [BRR2] was 2.63

The reported protein stability index of the sequence HLLLGFQVSNVISLGPN [YJL039C/NUP192] was 1.8

The reported protein stability index of the sequence EKLAVSALEQAIIYQRG [YGL100W/SEH1] was 2.4

The reported protein stability index of the sequence PSLRDRRERRLIFGTIA [RPT3] was 1.85

The reported protein stability index of the sequence WNKRDFMAFINACAKYG [ISW2] was 1.15

The reported protein stability index of the sequence NSSNYAELFNNDIKLFV [PRP8] was 2.27

The reported protein stability index of the sequence WIVVLPWFWLLPLWHLL [POP1] was 1.07

The reported protein stability index of the sequence FKLPKKFPPPTPLLENI [BRR2] was 2.71

----------
Please provide measured protein stability index for the entries that follow.
- procedure summary: protein stability index of a GFP-peptide fusion (yeast GPS) (PSI 1-4); higher = more stable; sorted into four equal gates, so the index is relative within each strain
- condition details: doa10∆
Provide a numeric answer; units are not to be included.

The reported protein stability index of the sequence MSLVVQEQGSFQHILRL [RPS18A] was 2.95

The reported protein stability index of the sequence NFPEASKLSEHLNHYIL [YCG1] was 2.53

The reported protein stability index of the sequence DGLIAPGVRVSGEDVII [RPB2] was 3.05

The reported protein stability index of the sequence DSKNTPNVFDKDSYVRI [YDL088C/ASM4] was 3.01

The reported protein stability index of the sequence QLESYEYMVQYIDEMYN [RRI1] was 2.74

The reported protein stability index of the sequence VMYGTAYKFEEVSKDLI [RPB8] was 2.9

The reported protein stability index of the sequence DSTQLLETILEEFRNLA [SSN2] was 2.69

The reported protein stability index of the sequence PYCPIASITGTGSNDRC [YMR129W/POM152] was 1.96

The reported protein stability index of the sequence VPCDRIEKSRLFSEKTI [SNF6] was 2.58

The reported protein stability index of the sequence RVVRPKSLDAETEAEED [RPO21] was 2.25

The reported protein stability index of the sequence VLKFAAHTGATPIAGRF [RPS0A] was 2.23

The reported protein stability index of the sequence KASVLEISPQDSIASVL [GAL11] was 3.27

The reported protein stability index of the sequence YTNSVELRSLSKKDFKI [YMR129W/POM152] was 2.41

The reported protein stability index of the sequence HEYIRHLALEIGEVYND [RPN1] was 2.29

----------
- procedure summary: protein stability index of a GFP-peptide fusion (yeast GPS) (PSI 1-4); higher = more stable; sorted into four equal gates, so the index is relative within each strain
- condition details: ubr1∆
measured property: protein stability index

The reported protein stability index of the sequence NWRKQKGIDSVVRRRFR [RPL32] was 2.28

The reported protein stability index of the sequence DEDEDNDLDEDDIYDIS [RPN4] was 3.33

The reported protein stability index of the sequence EIAQANSRNAIRKLVKN [RPL19A] was 3.1

The reported protein stability index of the sequence NVKELWTEKKGKNVINR [SMD2] was 3.6

The reported protein stability index of the sequence PQDLTFNAGSNPPSYQS [RPB7] was 2.86

The reported protein stability index of the sequence LVILKPDLNIDRNNSTN [SIN4] was 2.67

The reported protein stability index of the sequence QVSEVDPGRYNKVCRIE [RPB8] was 2.93

The reported protein stability index of the sequence GCSKICDLSSKFNKSKA [YCS4] was 2.99

The reported protein stability index of the sequence NVSENQPWQMDTNNEAD [SNF12] was 3.25

The reported protein stability index of the sequence NNNHKDKKLLRRLLNLY [SWI1] was 3.03

The reported protein stability index of the sequence YGYFSVGKRVPIVEDRR [SIR4] was 2.75

The reported protein stability index of the sequence KPGSKPEKTSTELVDGR [SIR3] was 3.27

The reported protein stability index of the sequence RVVYLKHLEDNTLLVTG [RPL6B] was 1.16

The reported protein stability index of the sequence IWDSQKFFIMIVKGNII [POP4] was 1.32

The reported protein stability index of the sequence TPSFSFGKTTANLPANS [YLR335W/NUP2] was 3.19

The reported protein stability index of the sequence DLAVCATIIGIISTAIA [ECM29] was 1.95

The reported protein stability index of the sequence HDVLQKLNTLSEILSFD [YML103C/NUP188] was 3.14

The reported protein stability index of the sequence SPLQKEEALNFDISMAD [SSN2] was 3.25

The reported protein stability index of the sequence IKKFAKLHMGTDDVRLA [RPL31A] was 1.58

The reported protein stability index of the sequence EARFDVLITSYEMVIRE [ISW2] was 2.02

The reported protein stability index of the sequence QIFVRGSQIKFIVVPDL [SMD3] was 2.02

The reported protein stability index of the sequence NPEPNKKNIQKAKSNQT [IRR1] was 2.56

The reported protein stability index of the sequence VFYRMQQLRRALPDVVV [RPO31] was 1.99

The reported protein stability index of the sequence IASEVLIKQVPRLLGPQ [RPL1A] was 1.67

The reported protein stability index of the sequence EVAKKRSRKTVKAQRPI [RPL24A] was 3.17

The reported protein stability index of the sequence PASKHDKEVVYFDEWTI [RPC34] was 3.12

The reported protein stability index of the sequence PANVLLVQSLNDMVLEL [NNF1] was 2.94

The reported protein stability index of the sequence GQQKIILSKKWGFTNLD [RPL10] was 2.29

The reported protein stability index of the sequence GNENFEDFDVEHFSDEE [RPO26] was 3.17

The reported protein stability index of the sequence DRFIELISDQLLEFFEL [YML103C/NUP188] was 2.74

The reported protein stability index of the sequence VEYLTRYVAGVQQRYTQ [PRE6] was 1.66

The reported protein stability index of the sequence MAHRVKVIPYSTFRLNL [RPO21] was 2.29

The reported protein stability index of the sequence QNMQQSLQQMQHLQQLK [GAL11] was 2.89

The reported protein stability index of the sequence AGDWKYDRQLSSLFLDG [FAS2] was 2.23

The reported protein stability index of the sequence CVVLGCERRSTLKLQDT [PRE6] was 1.28

The reported protein stability index of the sequence PKVKEIKTVVLVPQLGH [PRP8] was 2.31

The reported protein stability index of the sequence NRRWTQRRGPLVVYAED [RPL4A] was 2.16

The reported protein stability index of the sequence ERKKSIGSQRGRRLSML [DSN1] was 2.92

The reported protein stability index of the sequence NANAGLFNKPPSTNAQN [YOR098C/NUP1] was 3.16

The reported protein stability index of the sequence KKPRKPRQTKKAKAQAQ [PGD1] was 3.12

The reported protein stability index of the sequence NACAKYGRDDMENIKKS [ISW2] was 3.06

The reported protein stability index of the sequence RDDEPKLYQTEPSGIYS [PRE6] was 3.18

The reported protein stability index of the sequence TFGINLIYVNPFMLQWG [FAS1] was 2.4

The reported protein stability index of the sequence LAFDKLNVPVFQIVIEP [ARP7] was 1.7

The reported protein stability index of the sequence GVTKGYKYKMRYVYAHF [RPL9A] was 2.87

The reported protein stability index of the sequence TDLGKDIPFFPSSEKPN [SSN2] was 3.07

The reported protein stability index of the sequence DRKNRAPPQRPRFNREN [RPS26A] was 3.02

The reported protein stability index of the sequence DPDLGLDLMFDEVYVQN [YJL039C/NUP192] was 2.85

The reported protein stability index of the sequence SIDCLLILILVISFGQP [SWI1] was 1.59

The reported protein stability index of the sequence CPEEFAESMCQELELPG [SNF5] was 3.03

The reported protein stability index of the sequence NPSEFTPNMVNSEISNL [SSN2] was 2.91

The reported protein stability index of the sequence GYLIQVLLTFLQDELHK [YCS4] was 3.24

The reported protein stability index of the sequence CFCEDHCDKCSVVLTLQ [RPB3] was 2.51

The reported protein stability index of the sequence KSRMINFLDAPGHVNFM [SNU114] was 3.57

The reported protein stability index of the sequence SYVEPVLVASAKGLQTV [RPL31A] was 2.22

The reported protein stability index of the sequence PAAANLDALVDCENFFN [YJL039C/NUP192] was 2.7

The reported protein stability index of the sequence LLRLASKSTSMKLSMPP [POP1] was 2.81

The reported protein stability index of the sequence SEHFDVNDNPDIEAGDD [DIS3] was 3.08

The reported protein stability index of the sequence VFKTHSYRGVDLEKLLE [RPS15] was 2.29

The reported protein stability index of the sequence LTLTDSQLAQVAAFVNN [BRR2] was 2.69
